Where these numbers come from: PubChem BioAssay (NCI)

The following molecules are listed with their measured log10 of TGI values.
test system: SF-539 CNS; test: NCI tumour cell line growth inhibition, 48 h
VALUE_KIND: log10 of TGI (log10 of the value in µM)

INSERT INTO measurements (molecule, system_name, observed_value) VALUES
  ('Nc1nc(N)c(CCCCc2ccccc2)c(C=O)n1', 'SF-539 CNS', 1.56),
  ('Cc1cc(Cl)nc2ccc(Cc3ccc4nc(Cl)cc(C)c4c3)cc12', 'SF-539 CNS', 1.51),
  ('COc1cc(-c2cc3ncccc3c3nc(OCCN(C)C)c4cccnc4c23)cc(OC)c1OC', 'SF-539 CNS', 0.53),
  ('CC[C@@]1(O)C[C@H](OC2CC(N(C)C)C(O)C(C)O2)c2c(cc3c(c2O)C(=O)c2c(O)ccc(O)c2C3=O)[C@H]1C(=O)OC (some centres undefined)', 'SF-539 CNS', -0.39),
  ('COC(=O)c1ccc2nc(-c3cc4ccccc4n3C)n(CCCCOc3cc4c(cc3OC)C(=O)N3CCC[C@H]3C=N4)c2c1', 'SF-539 CNS', 0.39),
  ('Oc1c(C(Nc2ccccn2)c2cccc(Oc3ccccc3)c2)ccc2cccnc12 (centres undefined)', 'SF-539 CNS', 0.55);

* * *

test system: HOP-92 NSCLC; assay: NCI tumour cell line growth inhibition, 48 h
VALUE_KIND: TGI (µM)

INSERT INTO results (molecule, limit_sign, observed_value) VALUES
  ('O=C(COc1ccccc1Cl)N1N=C(c2ccccc2)CC1(O)c1ccccc1 (configuration not stated)', '=', 42.3),
  ('Nc1nc(NCCOCP(=O)(O)O)c([N+](=O)[O-])c(=O)[nH]1', '>', 100),
  ('CCOC(=O)/C=C(/C(=O)OCC)n1cc(C)c(=O)n(Cc2cnnn2COCCOC(C)=O)c1=O', '=', 8.22),
  ('COC(=O)[C@H](CC(C)C)NC(=O)[C@H](Cc1ccccc1)N1CC2C=CC1C2 (some centres not stated)', '>', 100),
  ('CCC(=O)Nc1cccc(N=Cc2ccc(OC(=O)/C=C\c3ccccc3)cc2)c1', '>', 75),
  ('O=C(c1ccccc1)C(Cl)C(Cl)c1ccccc1 (configuration not stated)', '=', 6.99),
  ('Cc1ccc(C)c2c1C(=O)N(c1ccc(F)cc1F)C2=O', '>', 100),
  ('Cc1c(Cc2ccccc2)n(C(C)OCCN(OC(=O)Oc2ccccc2)C(=O)Oc2ccccc2)c(=O)[nH]c1=O (configuration not stated)', '=', 29.7),
  ('COc1ccccc1NC(=S)N=Nc1c(O)[nH]c2ccccc12', '>', 100),
  ('Fc1ccc(-c2sc(-c3ccsc3)cc2Cc2ccsc2)cc1', '>', 10),
  ('COc1ccc2c(c1)[n+]([O-])c(-c1cccc(Cl)c1)c(N)[n+]2[O-]', '>', 100),
  ('Oc1cc(N2CC2)c(O)cc1N1CC1', '=', 7.9),
  ('ClCCCSSCCCCl', '>', 72.8),
  ('CN(C)Cc1c(O)ccc2c1c1c(n2C)C(=O)c2ccccc2C1=O', '>', 100),
  ('CC(=O)C1=C(C)O[C@@H]2O[C@H](COCc3ccccc3)[C@@H](OCc3ccccc3)[C@H](O)[C@@H]2S1', '=', 44.2),
  ('Nc1nc(Cl)cc(OCC2(CO)CCCC2)n1', '>', 100),
  ('CC(=O)c1ccccc1NC(=O)C(=O)C(C(=O)c1ccc2ccccc2c1)C1OC(=O)c2ccccc21 (configuration not stated)', '=', 41.1),
  ('Fc1cc(F)c(F)c(S)c1F', '>', 100),
  ('Cn1cnc(N2CCCC2)c(C#N)c1=S', '>', 100),
  ('C[C@@]1(CCCCCCCCCCc2ccccc2)C[C@@]2(C)OC(=O)C[C@H]2OO1', '=', 2.16),
  ('Cc1cc(Cl)nc2ccc(Cc3ccc4nc(Cl)cc(C)c4c3)cc12', '>', 100),
  ('COc1cc(-c2cc3ncccc3c3nc(OCCN(C)C)c4cccnc4c23)cc(OC)c1OC', '=', 3.2);
